Molecular target: USP8 Rhod domain (Homo sapiens, UniProt P40818)
Construct: USP8 Rhod (174–317) (UniProt: P40818); GST (cleaved yes); made in house; host or cells: Escherichia coli BL21-Gold (DE3)
Sequence (P40818 174-317): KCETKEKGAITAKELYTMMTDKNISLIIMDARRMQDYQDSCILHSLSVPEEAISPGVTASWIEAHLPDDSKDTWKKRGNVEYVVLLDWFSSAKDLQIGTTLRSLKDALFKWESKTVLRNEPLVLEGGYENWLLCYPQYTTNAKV
Test: Peptide-phage display-based deep mutational scanning (DMS), USP8 Rhod domain
Assay type: binding
Conditions: ProP-PD DMS, bait USP8_Rhodanese__P40818_174_317; pair wild-type GMERVLGGLSSPLRLL (wt_00013) vs mutant; positive where wild-type fraction is higher, negative where mutant fraction is higher
readout.kind: hit_pair_ratio
Numbers only.

Would you please look over these solved cases?
Task item: Recorded hit_pair_ratio of "GMERVLGGLSSPLRLQ" , please.
Reply: 26.83

Task item: Please do the same for "GMERVLGGLSSPSRLL" as well.
Reply: 1.14

Task item: Please do the same for "GMERVLGGLSSSLRLL" as well.
Reply: 8.62

Task item: Please do the same for "GMERVLGGLPSPLRLL" as well.
Reply: 131.67

Task item: Please do the same for "GMERVLGGLSSPLRLN" as well.
Reply: 321.97

Task item: Please do the same for "GMERVLGGLSSRLRLL" as well.
Reply: 160.99

Answer for every listed entry: what is its hit_pair_ratio? The entries follow.
1. GMERVLGGLSSPLNLL
2. GMERVLGGLSSPLALL

Reply:
38.62
-3.54
